Every entry's value here was drawn from PubChem BioAssay AID1645853.

Target: Ubiquitin carboxyl-terminal hydrolase 8 (Homo sapiens) (UniProt P40818)
Sequence (P40818 whole entry, looked up): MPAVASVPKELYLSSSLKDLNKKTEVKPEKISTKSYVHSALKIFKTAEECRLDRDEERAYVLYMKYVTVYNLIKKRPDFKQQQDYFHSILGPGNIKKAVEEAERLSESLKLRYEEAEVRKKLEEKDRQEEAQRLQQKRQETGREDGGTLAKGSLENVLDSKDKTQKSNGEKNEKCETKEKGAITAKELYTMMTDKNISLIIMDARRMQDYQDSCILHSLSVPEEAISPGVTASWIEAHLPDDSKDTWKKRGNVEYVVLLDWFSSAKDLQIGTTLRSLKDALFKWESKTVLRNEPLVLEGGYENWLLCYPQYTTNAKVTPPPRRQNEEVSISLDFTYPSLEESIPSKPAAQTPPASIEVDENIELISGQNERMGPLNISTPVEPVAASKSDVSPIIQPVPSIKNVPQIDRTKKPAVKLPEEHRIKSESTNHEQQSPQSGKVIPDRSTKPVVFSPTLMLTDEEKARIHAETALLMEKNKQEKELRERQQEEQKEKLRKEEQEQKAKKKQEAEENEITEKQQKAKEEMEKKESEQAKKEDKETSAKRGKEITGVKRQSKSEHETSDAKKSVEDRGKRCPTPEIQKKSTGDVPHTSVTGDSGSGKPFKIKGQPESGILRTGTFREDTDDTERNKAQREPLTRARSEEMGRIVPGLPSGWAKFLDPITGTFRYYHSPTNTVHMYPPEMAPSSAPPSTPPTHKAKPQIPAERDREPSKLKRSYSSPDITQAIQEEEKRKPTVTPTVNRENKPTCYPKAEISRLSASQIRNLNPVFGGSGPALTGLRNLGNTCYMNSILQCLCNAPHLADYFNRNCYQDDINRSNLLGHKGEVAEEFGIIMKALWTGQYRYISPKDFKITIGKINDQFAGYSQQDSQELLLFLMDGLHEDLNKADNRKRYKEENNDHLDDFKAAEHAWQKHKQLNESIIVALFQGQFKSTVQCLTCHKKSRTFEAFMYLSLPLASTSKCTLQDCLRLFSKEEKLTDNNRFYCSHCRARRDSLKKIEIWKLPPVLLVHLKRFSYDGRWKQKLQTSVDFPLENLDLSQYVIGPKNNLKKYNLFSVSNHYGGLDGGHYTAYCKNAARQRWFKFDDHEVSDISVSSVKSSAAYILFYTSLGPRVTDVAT
Assay: blocks human USP8 ubiquitin-rhodamine cleavage (AID 1645853)
Details: purified USP8, Ub-rhodamine cleavage fluorescence, 30 min; at 20 µM; stronger effect = higher value
Screen size: about 47,000 compounds; about 2,000 (4.3%) were called active. For the sample, actives were picked, then their nearest neighbours and some compounds at random.
Reported inhibition values follow for various molecules
Provide only the numeric value, understood in %.

{"molecule": "Cc1ccc(Cc2nnc(C(=O)NC(C)c3ccccc3)o2)cc1 (stereo not given)", "measurement.name": "inhibition", "result": 0.117}
{"molecule": "O=S1(=O)c2ccccc2O[C@H]2CCN(c3ncccn3)CC[C@@H]2N1Cc1cccnc1", "measurement.name": "inhibition", "result": -15.4}

Prompt line: # returns recorded inhibition (system: Ubiquitin carboxyl-terminal hydrolase 8 (Homo sapiens) (UniProt P40818)) for Cc1nc(CC(=O)Nc2ccc(F)c(F)c2)sc1C(=O)NC1CC1
Response line: 10.3

Prompt line: # returns recorded inhibition (system: Ubiquitin carboxyl-terminal hydrolase 8 (Homo sapiens) (UniProt P40818)) for CC1CCN(c2nc(F)c3c(c2F)S(=O)(=O)CCN3Cc2cccnc2)CC1
Response line: 85.2

Prompt line: # returns recorded inhibition (system: Ubiquitin carboxyl-terminal hydrolase 8 (Homo sapiens) (UniProt P40818)) for CCN1CCN(c2nc(F)c3c(c2F)S(=O)(=O)CCN3CC2CCCO2)CC1 (stereo not given)
Response line: 25.6
